The reported measurements were obtained from PubChem BioAssay (NCATS).

Tested on: Zika virus NS2B-NS3 protease (unlinked complex)
Assay: Primary screen GU Rhodamine qHTS for Zika virus inhibitors: Unlinked NS2B-NS3 protease assay (AID 1347159); note: nearly all actives have a fitted effect of over 60% in size
Conditions: Recombinant ZIKV NS2B-NS3 protease, Rhodamine110 substrate fluorescence; series mostly up to 107 µM
Results filed as inconclusive are left out. Active and inactive are the calls of the source. Calls come from the whole dose curve; as a rule, active = well fitted inhibition curve with a large enough effect; inconclusive = small, poorly fitted or top-dose-only effect; inactive = no such curve, though single readings can be large or run the other way.
The reply should name one outcome from active, inactive

Some entries whose results are on file:
C[C@@H]1O[C@@H](O[C@H]2[C@H](O)[C@@H](C(=O)O)O[C@@H](O[C@H]3CC[C@@]4(C)C(CC[C@]5(C)C4CC=C4C6CC(C)(C)CC[C@]6(C(=O)O)CC[C@]45C)C3(C)C)[C@@H]2O[C@@H]2OC[C@@H](O)[C@H](O)[C@H]2O)[C@H](O)[C@H](O)[C@H]1O (stereo partly specified) | active
CC(C)(C)c1ccc(S(=O)(=O)NCc2ccc(C(=O)Nc3cccnc3)cc2)cc1 | inactive
CC(=O)O[C@@H]1[C@@H](O)[C@H](C)O[C@@H](O[C@H]2[C@@H]3C=CO[C@@H](O[C@@H]4O[C@H](CO)[C@@H](O)[C@H](O)[C@H]4O)[C@@H]3[C@@]3(CO)O[C@@H]23)[C@@H]1OC(=O)/C=C/c1ccccc1 | inactive
CC(C)[C@@H](CS(=O)(=O)C(C)C)N1C(=O)[C@@](C)(CC(=O)O)C[C@H](c2cccc(Cl)c2)[C@H]1c1ccc(Cl)cc1 | active
O=C(CO)[C@@H](O)[C@H](O[C@@H]1O[C@H](CO)[C@H](O)[C@H](O)[C@H]1O)[C@H](O)CO | inactive

Switching to the query record.
Called result for `O=C(Nc1c(-c2cccs2)nc2ccccn12)c1ccc(Cl)cc1`
inactive
